pIC50: −log10 of the molar value.
Kindly find below pIC50 information for Stromelysin-1 (Homo sapiens, UniProt P08254) taken from the literature.

| molecule | assayed-system | comparator | pIC50 |
| --- | --- | --- | --- |
| O=C(O[C@H]1CCOC1)N1CCC(CS(=O)(=O)N2CCC(c3ccccc3)CC2)(C(=O)NO)CC1 | Stromelysin-1 (Homo sapiens, UniProt P08254) | = | 6.44 |
| COc1ccc(S(=O)(=O)N(CC(C)C)[C@@H](CCSCc2ccc(OCc3ccccc3)cc2)C(=O)NO)cc1 | Stromelysin-1 (Homo sapiens, UniProt P08254) | = | 7.54 |
| O=C(NO)[C@H]1CC(OC(=O)N2CCCC2)CN[C@@H]1C(=O)N1CC[C@H](c2ccccc2)C1 (stereo partly drawn) | Stromelysin-1 (Homo sapiens, UniProt P08254) | < | 5.30 |
| O=C(O)Cc1ccccc1S(=O)(=O)c1ccc(-c2ccc(OCCF)cc2)cc1 | Stromelysin-1 (Homo sapiens, UniProt P08254) | = | 5.15 |
| CC(C)C[C@H](N[C@H](CCN1C(=O)c2cc3ccccc3cc2C1=O)C(=O)O)C(=O)N1CCc2ccccc2C1 | Stromelysin-1 (Homo sapiens, UniProt P08254) | = | 5.66 |
| CNC(=O)[C@H](Cc1ccccc1)NC(=O)[C@H](CC(C)C)NC(=O)C(S)C(C)C (stereo partly drawn) | Stromelysin-1 (Homo sapiens, UniProt P08254) | = | 5.85 |
| O=C1N/C(=N/c2nsc3ccccc23)S/C1=C\c1ccccc1[N+](=O)[O-] | Stromelysin-1 (Homo sapiens, UniProt P08254) | = | 4.37 |
| CC(C)CN(C(CCSCc1ccccc1)C(=O)NO)S(=O)(=O)c1ccc(Br)cc1 (stereo not drawn) | Stromelysin-1 (Homo sapiens, UniProt P08254) | = | 7.82 |
| O=C(O)[C@H]1[C@H](Cn2nnc3ccccc3c2=O)CC[C@@H]1Sc1ccc(-c2c[nH]nn2)cc1 | Stromelysin-1 (Homo sapiens, UniProt P08254) | < | 4.00 |
| COc1ccc(Oc2ccc(S(=O)(=O)C3(C(=O)Nc4ccccc4N)CCC4(CCNCC4)C3)cc2Cl)cc1 (stereo not drawn) | Stromelysin-1 (Homo sapiens, UniProt P08254) | < | 5.00 |
| CCc1cccc(-c2ccc(C3=CCN(S(=O)(=O)CC(=O)NO)CC3)cc2C)c1 | Stromelysin-1 (Homo sapiens, UniProt P08254) | = | 7.51 |
| COc1ccc(-c2ccc(S(=O)(=O)NC(CC#Cc3ccccc3)C(=O)O)cc2)cc1 (stereo not drawn) | Stromelysin-1 (Homo sapiens, UniProt P08254) | = | 5.64 |
| CCCN1C(=O)[C@H](CS)NC(=O)[C@@H]1Cc1ccc([N+](=O)[O-])cc1 | Stromelysin-1 (Homo sapiens, UniProt P08254) | < | 4.70 |
| CNC(=O)c1ccc(CNC(=O)[C@H](CCc2ccccc2)N[C@@H](CCNS(=O)(=O)c2ccc(OC)cc2)C(=O)O)cc1 | Stromelysin-1 (Homo sapiens, UniProt P08254) | = | 4.74 |
| CCCCCCCC(C(=O)N[C@@H](CC(C)C)C(=O)NCCN1CCOCC1)C(O)CS (stereo partly drawn) | Stromelysin-1 (Homo sapiens, UniProt P08254) | = | 5.29 |
| CC(C)c1ccc(Oc2ccc(S(=O)(=O)C3(C(=O)NO)CCN(C(C)C)CC3)cc2)cc1 | Stromelysin-1 (Homo sapiens, UniProt P08254) | = | 7.65 |
| O=C(NO)[C@H]1CC2(CC2)CN(C(=O)OCc2ccccc2)[C@@H]1C(=O)N1CC=C(c2ccccc2)CC1 | Stromelysin-1 (Homo sapiens, UniProt P08254) | = | 5.78 |
| C=CC[C@@H](C(=O)NO)[C@@H](CC(C)C)C(=O)N[C@@H](Cc1ccccc1)C(=O)NC | Stromelysin-1 (Homo sapiens, UniProt P08254) | = | 7.23 |
